# Tested on: HL-60
# measurement-protocol: MTT cytotoxicity assay, HL-60
# Assay type: cell-based
# experimental-parameters: Homo sapiens; HL-60, at 4 h after treatment
metric-name: pIC50
A value of pIC50 is the negative decimal logarithm of a concentration given in moles per litre.

Exam item: # query: pIC50 of entry CN1CCN(C(=O)C2C(C(=O)O)[C@H]3CC[C@@H]2O3)CC1 (stereo partly shown)
Marked response: 5.47

----------
# Tested on: THP-1
# measurement-protocol: MTT cytotoxicity assay, THP-1
# Assay type: cell-based
# experimental-parameters: Homo sapiens; THP-1, at 4 h after treatment
metric-name: IC50 (µM)
Respond with the bare value in µM.

Exam item: Which IC50 value is on record for CN1CCN(C(=O)C2C(C(=O)O)[C@H]3CC[C@@H]2O3)CC1 (stereo partly shown) [LB100] ?
Marked response: 13.5

Values were extracted from patent US20210275521A1.
